Test system: SF-295 CNS
MEASUREMENT PROTOCOL: NCI-60 one-dose screen, 48 h (100 = growth as untreated, 0 = no growth, -100 = all killed)
DETAILS: 10 µM unless noted
Compounds without any hit were thinned out: in the full panel of roughly 83,000, 20% have a hit.
MEASURED ATTRIBUTE: growth (%)
Answer in %, number only, no unit symbol.

Some compounds with recorded growth:
INSERT INTO assay_data (compound, measured_attribute, value) VALUES
  ('COc1ccc(C(=O)/C=C/c2c(F)cccc2Cl)cc1S(N)(=O)=O', 'growth', 12.7),
  ('CC1(C)CC[C@]2(C(=O)O)CC[C@]3(C)C(=CCC4[C@@]5(C)C[C@@H](O)[C@@H]6OC(c7ccccc7F)OC[C@@]6(C)C5CC[C@]43C)C2C1 (stereo not given in full)', 'growth', -0.465),
  ('C#CCOc1cc(N(CC)CC)ccc1C(C(=O)NC(C)(C)C)N(C(=O)C1CCc2cc(F)ccc2O1)c1ccc(F)cc1 (stereo not given)', 'growth', 41.5),
  ('O=C1CC(Sc2n[nH]c(-c3ccncc3)n2)C(=O)N1c1ccc(Br)cc1 (stereo not given)', 'growth', 107);

Proceed to the following item.
Quick one: give measured growth for COc1cc2nc(SCc3ccccc3)n(-c3ccc(Cl)cc3)c(=O)c2cc1OC
-59.9
